System: HSC-4
Experiment: Selectivity index, ratio of CC50 for normal cells to CC50 for human HSC4 cells
Assay type: functional
Item-by-item account of Selectivity Index
assay metric: Selectivity Index

>>> recorded_value("N[C@@H](Cc1ccc(N(CCCl)CCCl)cc1)C(=O)O [MELPHALAN]")
6.6
>>> recorded_value("CCOP(=O)(OCC)N1C/C(=C\\c2cc(OC)c(OC)c(OC)c2)C(=O)/C(=C/c2cc(OC)c(OC)c(OC)c2)C1")
11
>>> recorded_value("COc1ccc(/C=C2\\CN(P(=O)(O)O)C/C(=C\\c3ccc(OC)cc3)C2=O)cc1")
17
>>> recorded_value("CCOP(=O)(OCC)N1C/C(=C\\c2ccc(Cl)cc2)C(=O)/C(=C/c2ccc(Cl)cc2)C1")
6.3
>>> recorded_value("CCOP(=O)(OCC)N1C/C(=C\\c2cccc([N+](=O)[O-])c2)C(=O)/C(=C/c2cccc([N+](=O)[O-])c2)C1")
9.6
>>> recorded_value("O=C1/C(=C/c2cccc([N+](=O)[O-])c2)CN(P(=O)(O)O)C/C1=C\\c1cccc([N+](=O)[O-])c1")
19
>>> recorded_value("O=C1/C(=C/c2ccccc2[N+](=O)[O-])CN(P(=O)(O)O)C/C1=C\\c1ccccc1[N+](=O)[O-]")
22
>>> recorded_value("O=C1/C(=C/c2ccccc2)CN(P(=O)(O)O)C/C1=C\\c1ccccc1")
10
